Reported viability, T/C values for a set of molecules
Tested on: 252836-082-R-J2-PDC tumor spheroids, viability;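 further: spheroids exposed to agents for seven days before readout; percent of vehicle DMSO control viability so 100% = untreated growth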
Test method notes: Anticancer human tumor 252836-082-R-J2-PDC patient-derived head and neck squamous cell carcinoma cell line growth inhibition [PI3K]
Stated conditions: second compound 0.1 µM; first compound 0.001 µM; hits give low values; spheroids with HUVEC and MSC
Kindly provide the numeric value in % only, without the unit symbol.

Known results for molecules:
CC(=O)c1c(C)c2cnc(Nc3ccc(N4CCNCC4)cn3)nc2n(C2CCCC2)c1=O + CC(Nc1ccc2c(c1)OCCn1cc(N3C(=O)OCC3C(F)F)nc1-2)C(N)=O ... 68.9
Cn1ncnc1[C@H]1c2n[nH]c(=O)c3cc(F)cc(c23)N[C@@H]1c1ccc(F)cc1 + Cc1nc(NC(=O)N2CCCC2C(N)=O)sc1-c1ccnc(C(C)(C)C(F)(F)F)c1 ... 71.3
CC(C)n1nc(-c2ccc3oc(N)nc3c2)c2c(N)ncnc21 + COc1c(OCCCN2CCOCC2)ccc2c3n(c(=NC(=O)c4cnc(N)nc4)nc12)CCN3 ... 34.8
Cn1ncnc1[C@H]1c2n[nH]c(=O)c3cc(F)cc(c23)N[C@@H]1c1ccc(F)cc1 + CC(Nc1ccc2c(c1)OCCn1cc(N3C(=O)OCC3C(F)F)nc1-2)C(N)=O ... 71.8
CC(=O)c1c(C)c2cnc(Nc3ccc(N4CCNCC4)cn3)nc2n(C2CCCC2)c1=O + Cc1nc(NC(=O)N2CCCC2C(N)=O)sc1-c1ccnc(C(C)(C)C(F)(F)F)c1 ... 83.8

Ask | Given the entry CC(C)n1nc(-c2ccc3oc(N)nc3c2)c2c(N)ncnc21 + CC(Nc1ccc2c(c1)OCCn1cc(N3C(=O)OCC3C(F)F)nc1-2)C(N)=O , report its measured viability, T/C.
Reply | 65.1
